Data credit: paper PMC548356

Below, each entry is listed alongside its reported IC50.
target desc: UniProt P38218
Sequence (P38218 whole entry): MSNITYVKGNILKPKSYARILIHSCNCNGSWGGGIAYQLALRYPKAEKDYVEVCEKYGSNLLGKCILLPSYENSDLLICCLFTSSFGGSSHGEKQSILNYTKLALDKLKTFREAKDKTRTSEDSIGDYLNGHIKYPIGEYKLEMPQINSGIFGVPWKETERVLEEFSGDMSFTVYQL
test description: Inhibition of Appr1p phosphatase activity of Poa1p
Type: biochemical
cond: 35 nM Poa1p, 5 μM Appr1p, 2 h

The examples below pair each entry with its known result.
[
  {
    "compound": "Nc1ncnc2c1ncn2[C@@H]1O[C@H](COP(=O)(O)OP(=O)(O)O)[C@@H](O)[C@H]1O [ADP]",
    "IC50": "> 10 mM"
  },
  {
    "compound": "Nc1ncnc2c1ncn2[C@@H]1O[C@H](CO)[C@@H](OP(=O)(O)O)[C@H]1O [3′pA]",
    "IC50": "> 10 mM"
  }
]

Now look at this one.
Quick one: IC50 of Nc1ccn([C@@H]2O[C@H](CO)[C@@H](O)[C@H]2OP(=O)(O)O)c(=O)n1 [2′pC] ?
> 10 mM
